target: recombinant homotrimeric HA A/Netherlands/219/03 H7N7 (Influenza A virus A/Netherlands/219/03(H7N7)); test: protein microarray, purified IgG, trimeric HA; conditions: remark: other sources report otherwise
Measured Trimeric HA Binding: RLU of individual entries
test_readout: Trimeric HA Binding: RLU

binder: TCN-532 (5262_H18) (antibody, V domains shown) VH: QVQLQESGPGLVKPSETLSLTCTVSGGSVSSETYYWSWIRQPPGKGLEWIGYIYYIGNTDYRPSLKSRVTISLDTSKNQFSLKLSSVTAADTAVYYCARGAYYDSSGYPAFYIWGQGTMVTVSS VL: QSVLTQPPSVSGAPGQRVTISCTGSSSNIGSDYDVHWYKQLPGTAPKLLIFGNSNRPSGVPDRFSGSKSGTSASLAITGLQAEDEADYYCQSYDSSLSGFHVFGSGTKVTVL
data_value: 129 RLU

binder: TCN-539 (5056_A08) (antibody, V domains shown) VH: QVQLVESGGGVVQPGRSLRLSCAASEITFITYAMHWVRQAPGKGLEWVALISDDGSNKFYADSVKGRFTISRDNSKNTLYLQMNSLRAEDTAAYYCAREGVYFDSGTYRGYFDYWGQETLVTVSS VL: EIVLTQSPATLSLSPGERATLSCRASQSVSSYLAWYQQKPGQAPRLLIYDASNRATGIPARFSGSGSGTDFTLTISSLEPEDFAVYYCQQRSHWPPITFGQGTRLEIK
data_value: 161 RLU
